Ref: patent US8840891

# EXPERIMENTAL_TARGET: T1, TSHR coated onto tubes (human, UniProt P16473 21-764, limits assumed)
# T1 construct: whole entry named; also called TSHR coated tubes; thyrotropin receptor
# ASSAY_EXPLANATION: TSHR coated tubes, competitor 125I-M22 IgG
Measured % inhib of 125I-M22 IgG binding at 0.1 µg/mL by item
Give the value, in units of %, as a plain number.

BINDER: 16E5 IgG (antibody, V domains shown) VH: DVQLVQSGPELVKPGASVKMSCKASGYSFTGYNMHWVKQSHGKSLEWIGYIDPYNGATSYNQKFEDKATLTVDKSSSTAYMQLNSLTSEDSAVYYCARRWDWDPYAMDYWGQGTSVTVSS VL: DILLTQSPAILSVSPGERVSFSCRASQSIGTSIHWYQQRTNGSPRLLIKYASESISGIFSRFSGSGSGTDFTLTINSVESEDIADYYCQQSNRWPLTFGAGTKLELKR
READING: 22

Quick one: % inhib of 125I-M22 IgG binding at 0.1 µg/mL of 14D3 IgG (antibody, V domains shown) VH: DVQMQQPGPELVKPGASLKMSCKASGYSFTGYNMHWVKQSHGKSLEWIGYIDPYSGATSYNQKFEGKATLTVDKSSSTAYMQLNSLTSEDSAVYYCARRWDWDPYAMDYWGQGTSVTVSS VL: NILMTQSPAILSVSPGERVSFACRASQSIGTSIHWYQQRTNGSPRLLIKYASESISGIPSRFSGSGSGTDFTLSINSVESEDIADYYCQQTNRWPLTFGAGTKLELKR ?
15

Quick one: % inhib of 125I-M22 IgG binding at 0.1 µg/mL for 2B4 IgG (antibody, V domains shown) VH: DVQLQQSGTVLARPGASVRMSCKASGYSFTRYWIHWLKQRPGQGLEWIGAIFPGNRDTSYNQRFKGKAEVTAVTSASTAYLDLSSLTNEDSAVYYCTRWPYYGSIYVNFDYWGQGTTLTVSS VL: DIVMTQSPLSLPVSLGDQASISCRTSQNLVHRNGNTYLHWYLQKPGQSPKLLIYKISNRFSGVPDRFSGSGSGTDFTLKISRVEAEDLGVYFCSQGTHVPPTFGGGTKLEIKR ?
12

Item under review: 9D33 IgG (antibody, V domains shown) VH: DVQIQQPGTELVKPGASVRLSCKASGYTFTTYWMHWVKQRPGQGLEWIGEIDPSDSYTNYNQKFKGKATLTVDKSSSTAYMHLSSLTSEDSAVYYCSRNYGSGYYFDYWGQGTTLTVSS VL: GVEMTQSPAIMSASPGEKVTMTCSASSSVSYMHWYQQKSGTSPKRWIYDTSKLASGVPARFSGSGSGTSYSLTISSMETEDAATYYCQQWSSNPWTFGGGTKLEIK . Reported % inhib of 125I-M22 IgG binding at 0.1 µg/mL?
27
